Cited source for all entries: PubChem BioAssay (EPA / NIEHS)

test: TOX21_p53_BLA_p3_viability: Viability Assessment in the Tox21 HCT-116 p53 Agonism Beta-lactamase Assay, Phase 3 (AID 2283593);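 also: cells exposed to compound for 16 h before reading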
Results filed as inconclusive are left out. Calls of active or inactive are those of the source. The calls were made as follows: active = hit-call score of the fitted dose curve at least 0.9, where 1 is the maximum; inconclusive = response in the unintended direction; inactive = score below 0.9.
Outcomes: true = active, false = inactive

{"Compound Structure String": "S=C=NCCc1ccccc1", "Label": "false"}
{"Compound Structure String": "c1ccc(C2(N3CCCC3)CCCCC2)cc1", "Label": "true"}
{"Compound Structure String": "N#CC(Cl)(Cl)Cl", "Label": "false"}
{"Compound Structure String": "CC(=O)Nc1cc([As](=O)(O)O)ccc1O", "Label": "false"}
{"Compound Structure String": "C[C@@H]1CC[C@H]2[C@@H](C)C(=O)O[C@@H]3O[C@@]4(C)CC[C@@H]1[C@]32OO4", "Label": "false"}
{"Compound Structure String": "CO[C@H]1[C@@H](O)C[C@H](O[C@H]2[C@@H](O)C[C@H](O[C@H]3[C@@H](O)C[C@H](O[C@H]4CC[C@@]5(C)[C@H](CC[C@@H]6[C@@H]5C[C@@H](O)[C@]5(C)[C@@H](C7=CC(=O)OC7)CC[C@]65O)C4)O[C@@H]3C)O[C@@H]2C)O[C@@H]1C", "Label": "true"}
{"Compound Structure String": "O=CC=Cc1ccccc1", "Label": "false"}
{"Compound Structure String": "N#C/C(N)=C(/N)C#N", "Label": "false"}
{"Compound Structure String": "S=C=S", "Label": "false"}
{"Compound Structure String": "N[C@@H](Cc1ccc(N(CCCl)CCCl)cc1)C(=O)O", "Label": "false"}
{"Compound Structure String": "CNC(=O)Oc1c(C(C)(C)C)cc(C)cc1C(C)(C)C", "Label": "false"}
